Test system: Bacillus subtilis
Assay: Antibacterial activity against Bacillus subtilis ATCC 23857 assessed as bacterial growth inhibition incubated for 18 hrs by broth microdilution method
Assay type: functional
Observed property: MIC (µg/mL)
Field format: number, assumed µg/mL, no unit text.

Input line: Look up MIC: CCCCCCC(=O)N[C@@H](CCN)C(=O)N[C@H](C(=O)N[C@@H](CCN)C(=O)N[C@H](Cc1ccccc1)C(=O)N[C@@H](CC(C)C)C(=O)N[C@@H](CCN)C(=O)N[C@@H](C(=O)N[C@@H](CC(C)C)C(=O)N[C@@H](Cc1ccc(O)cc1)C(N)=O)C(C)C)[C@@H](C)CC
Output line: 2

New cases:
Input line: What value of measured MIC is listed for CCCCCCCC(=O)N[C@@H](CCN)C(=O)N[C@H](C(=O)N[C@@H](CCN)C(=O)N[C@H](Cc1ccccc1)C(=O)N[C@@H](CC(C)C)C(=O)N[C@@H](CCN)C(=O)N[C@@H](C(=O)N[C@@H](CC(C)C)C(=O)N[C@@H](Cc1ccc(O)cc1)C(N)=O)C(C)C)[C@@H](C)CC ?
Output line: 2

----------
Tested on: Bacillus subtilis
Experiment: Antibacterial activity against Bacillus subtilis ATCC 23857 assessed as bacterial growth inhibition incubated for 18 hrs by broth microdilution method
Assay type: functional
Where a SMILES comes first, the peptide text is derived from it. Bridges are numbered along the chain shown (N, C = ends). [ ]: non-standard residue; d: D form. The star is where a group is joined. Heptanoyl(6-Me) = CC(C)CCCCC(=O)*; Dab = NCC[C@H](N)C(=O)O
Quick reference for log10 MIC among some compounds
Plainly stated, the numbers are log10 of MIC given in µg/mL.

Input line: # lookup: log10 MIC of CCCCCC(=O)N[C@@H](CCN)C(=O)N[C@H](C(=O)N[C@@H](CCN)C(=O)N[C@H](Cc1ccccc1)C(=O)N[C@@H](CC(C)C)C(=O)N[C@@H](CCN)C(=O)N[C@@H](C(=O)N[C@@H](CC(C)C)C(=O)N[C@@H](C)C(N)=O)C(C)C)[C@@H](C)CC
Output line: 0.90

Input line: Let us now turn to CCCCCCCCCCC(=O)N[C@@H](CCN)C(=O)N[C@H](C(=O)N[C@@H](CCN)C(=O)N[C@H](Cc1ccccc1)C(=O)N[C@@H](CC(C)C)C(=O)N[C@@H](CCN)C(=O)N[C@@H](C(=O)N[C@@H](CC(C)C)C(=O)N[C@H](C(N)=O)[C@@H](C)O)C(C)C)[C@@H](C)CC
Output line: 0.30

Input line: Likewise for CC(C)CCCCC(=O)N[C@@H](CCN)C(=O)N[C@H](C(=O)N[C@@H](CCN)C(=O)N[C@H]1CCNC(=O)[C@H]([C@@H](C)O)NC(=O)[C@H](CCN)NC(=O)[C@H](CCN)NC(=O)[C@H](CC(C)C)NC(=O)[C@@H](Cc2ccccc2)NC(=O)[C@H](CCN)NC1=O)[C@@H](C)O ({Heptanoyl(6-Me)}-[Dab]T[Dab][Dab][Dab][dF]L[Dab][Dab]T; lactam 4-C) ?
Output line: 0.90

Input line: Cool, now CCCCCC(=O)N[C@@H](CCN)C(=O)N[C@H](C(=O)N[C@@H](CCN)C(=O)N[C@H](Cc1ccccc1)C(=O)N[C@@H](CC(C)C)C(=O)N[C@@H](CCN)C(=O)N[C@@H](C(=O)N[C@@H](CC(C)C)C(=O)N[C@@H](Cc1ccccc1)C(N)=O)C(C)C)[C@@H](C)CC
Output line: 0.60

Input line: Can you handle CC[C@H](C)[C@H](NC(=O)[C@@H](N)CCN)C(=O)N[C@@H](CCN)C(=O)N[C@H](Cc1ccccc1)C(=O)N[C@@H](CC(C)C)C(=O)N[C@@H](CCN)C(=O)N[C@@H](C(=O)N[C@@H](CC(C)C)C(=O)N[C@H](C(N)=O)[C@@H](C)O)C(C)C next?
Output line: 1.51

---
Input line: Recorded log10 MIC of CC[C@H](C)[C@@H]1NC(=O)[C@H](CCN)NC(=O)[C@H](CC(C)C)NC(=O)[C@H]([C@@H](C)O)NC(=O)[C@H](CC(C)C)NC(=O)[C@@H](C(C)C)NC(=O)[C@H](CCN)NC(=O)[C@H](CC(C)C)NC(=O)[C@@H](Cc2ccccc2)NC(=O)[C@H](CCN)NC1=O , please.
Output line: 1.20

This collection of values is drawn from ChEMBL document CHEMBL5331122.
